Attribution: ChEMBL document CHEMBL5233264

Items are presented alongside their recorded pKd.
study-target: Quadruplex DNA
test-description: Binding affinity to human MYC G4 DNA sequence
Format: nucleic-acid assay
pKd: −log10 of the molar value.
property: pKd

| molecule | property | observed-value |
| --- | --- | --- |
| CN(CCc1ccc(Br)cc1)c1ccc2nc3ccc(N(C)CCc4ccc(Br)cc4)cc3[s+]c2c1 | pKd | 7.15 |
| CN(C)c1ccc2nc3ccc(N(C)C)cc3[s+]c2c1 [METHYLENE BLUE ANHYDROUS] | pKd | 6.70 |

---

Items are presented alongside their recorded IC50.
study-target: Bromodomain-containing protein 4 (Homo sapiens)
test-description: Inhibition of BRD4 (unknown origin)

| test-smiles | study-target | IC50, nM |
| --- | --- | --- |
| Oc1ccc(Cl)c2cccnc12 | Bromodomain-containing protein 4 (Homo sapiens) | 6470 |
| CCS(=O)(=O)Nc1ccc(Oc2ccc(F)cc2F)c(-c2cn(C)c(=O)c3[nH]ccc23)c1 | Bromodomain-containing protein 4 (Homo sapiens) | 3 |
| CCn1cc(C(=O)O)c(=O)c2cc(F)c(N3CCNCC3)cc21 | Bromodomain-containing protein 4 (Homo sapiens) | 980 |
